Hello, the source for this data is patent US8324380B2, in case you need it.

Provide the recorded IC50 for the entries that follow.
molecular target: GPR73 (prokineticin 1 receptor) (Homo sapiens, UniProt Q8TCW9); construct: expressed in transfected cells; host or cells: HEK 293; test: PK1 functional assay: Ca2+ mobilization on the FLIPR; assay type: cell-based; conditions: HEK 293 GPR73 cells; read-out: Ca^2+ Mobilization IC50
Sequence (Q8TCW9 whole entry, species assumed): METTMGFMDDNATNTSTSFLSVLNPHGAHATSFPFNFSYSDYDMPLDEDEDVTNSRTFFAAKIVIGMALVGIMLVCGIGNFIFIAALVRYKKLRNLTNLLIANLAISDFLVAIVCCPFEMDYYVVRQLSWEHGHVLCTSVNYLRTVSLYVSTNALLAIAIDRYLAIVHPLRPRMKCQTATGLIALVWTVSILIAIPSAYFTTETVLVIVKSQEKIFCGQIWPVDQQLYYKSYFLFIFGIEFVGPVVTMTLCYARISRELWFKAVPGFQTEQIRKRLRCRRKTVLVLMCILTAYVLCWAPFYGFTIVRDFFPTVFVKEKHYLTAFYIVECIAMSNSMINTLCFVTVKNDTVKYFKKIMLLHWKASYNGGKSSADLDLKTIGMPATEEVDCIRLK
// units = µM; emit number, no label

Please report the recorded IC50 for Nc1ncc(CCNc2nc(=O)n(Cc3ccc4c(c3)CCO4)c(=O)n2Cc2ccc(OC(F)F)cc2)[nH]1 [Cpd 82] .
0.202

Next entry: Nc1nc2cccc(F)c2n1CCNc1nc(=O)n(Cc2ccc(F)cc2)c(=O)n1Cc1ccc(OC(F)(F)F)cc1 [Cpd 40]
0.969

Field entry: NC1=Nc2ccccc2CN1CCNc1nc(=O)n(Cc2ccc(F)cc2)c(=O)n1Cc1ccc(OC(F)(F)F)cc1 [Cpd 47]
0.123

Also need COc1ccc(Cn2c(C(=O)NCCn3c(N)nc4ccccc43)cc(=O)n(Cc3ccc(OC)cc3)c2=O)cc1 [Cpd 13] , thanks.
7.39

And what about the compound COc1ccc(Cn2c(NCCc3cnc(N)[nH]3)nc(=O)n(Cc3ccc(Cl)c(Cl)c3)c2=O)cc1 [Cpd 59] ?
0.049

Follow-up item: CSc1ccc(Cn2c(=O)nc(NCCn3c(N)nc4ccccc43)n(Cc3ccc4c(c3)CCO4)c2=O)cc1 [Cpd 74]
0.034

Query Nc1nc2ccc(F)c(F)c2n1CCNc1nc(=O)n(Cc2ccc(F)cc2)c(=O)n1Cc1ccc(OC(F)(F)F)cc1 [Cpd 37] next
2.2

Again, but for Nc1nc2cc(F)ccc2n1CCNc1nc(=O)n(Cc2ccc(F)cc2)c(=O)n1Cc1ccc(OC(F)(F)F)cc1 [Cpd 34]
0.363

Quick one: NC1=Nc2cccc(Cl)c2CN1CCNc1nc(=O)n(Cc2ccc(F)cc2)c(=O)n1Cc1ccc(OC(F)F)cc1 [Cpd 42]
0.063

Ok, now NC1=Nc2ccc(F)cc2CN1CCNc1nc(=O)n(Cc2ccc(F)cc2)c(=O)n1Cc1ccc(OC(F)(F)F)cc1 [Cpd 51]
0.996

What do you have for NC1=Nc2ccc(F)cc2CN1CCNc1nc(=O)n(Cc2ccc(F)cc2)c(=O)n1Cc1ccc(OC(F)F)cc1 [Cpd 45] ?
0.092

Please answer likewise for NC1=Nc2cc(Cl)ccc2CN1CCNc1nc(=O)n(Cc2ccc(F)cc2)c(=O)n1Cc1ccc(OC(F)(F)F)cc1 [Cpd 50]
0.332

Also need Cn1nnc2cc(Cn3c(=O)nc(NCCc4cnc(N)[nH]4)n(Cc4ccc(OC(F)F)cc4)c3=O)ccc21 [Cpd 83] , thanks.
0.224

# iterate: Nc1ncc(CCNc2nc(=O)n(Cc3ccc(Cl)c(Cl)c3)c(=O)n2Cc2ccc(OC(F)F)cc2)[nH]1 [Cpd 79]
0.102

Now the same for Nc1nccn1CCNc1nc(=O)n(Cc2ccc(F)cc2)c(=O)n1Cc1ccc(OC(F)(F)F)cc1 [Cpd 22]
0.061
